The origin of these recorded values is patent US20250009748A1.

# assayMethodText: LC-MS/MS plasma concentration of formula (10b) and Compound A at end of efficacy study (Example 1)
# Format: in vivo, NOD/SCID mice
# experimentalSetup: NOD/SCID, mouse, plasma, oral, 100 mg/kg, Compound A Plasma concentration, 2 hours after final dose of Compound A; Compound A 100 mg/kg QD; mean ± SD, N = 4
recordedEndpoint: concentration at 2 h (µM)

molecule | reportedMeasurement
C=CC(=O)N1CCN(c2nc(=O)n(-c3c(C)ccnc3C(C)C)c3nc(-c4c(O)cccc4F)c(F)cc23)[C@@H](C)C1 [Compound A, reference compound] | 8.8

----------
# assayMethodText: LC-MS/MS plasma concentration of formula (10b) and Compound A at end of efficacy study (Example 1)
# Type: in vivo, NOD/SCID mice
# experimentalSetup: NOD/SCID, mouse, plasma, oral, 100 mg/kg, 8 hours after final dose of formula (10b); Formula (10b) 100 mg/kg QD; mean ± SD, N = 4
recordedEndpoint: concentration at 8 h (µM)

compound | reportedMeasurement
Cc1c(N2CCC3(CC2)CO[C@@H](C)[C@H]3N)nc(C)n(-c2cccc(Cl)c2Cl)c1=O (atropisomer, axis not shown; (Ra)) [Formula (10b)] | 7.5
